# MEASURED_TARGET: MOR
# ASSAY_OVERVIEW: Radioligand binding assay at μ opioid receptor
Non-standard residues stand in square brackets, D forms with d. Residues, ends and D or L forms follow the SMILES beside them. *: point of attachment. NH(3,5-(CF3)2-benzyl) = FC(F)(F)c1cc(CN*)cc(C(F)(F)F)c1; NMePhe(4-F) = CN[C@@H](Cc1ccc(F)cc1)C(=O)O; Dmt = Cc1cc(O)cc(C)c1C[C@H](N)C(=O)O; NMeF = CN[C@@H](Cc1ccccc1)C(=O)O
ATTRIBUTE_MEASURED: pKi
Kindly note that pKi refers to -log10 of the concentration in mol/L and answer with the value alone.

Solved entries:
# MOLECULE, MEASURED_TARGET, pKi
records = [
    ("Cc1cc(O)cc(C)c1C[C@H](N)C(=O)N[C@H](C)C(=O)NCC(=O)N[C@@H](Cc1ccccc1)C(=O)N1CCC[C@H]1C(=O)N[C@@H](CC(C)C)C(=O)N[C@@H](Cc1c[nH]c2ccccc12)C(=O)NCc1cc(C(F)(F)F)cc(C(F)(F)F)c1 [AKG116]", "MOR", 8.52),
    ("CC(C)C[C@H](NC(=O)[C@@H]1CCCN1C(=O)CCCNC(=O)[C@H](Cc1ccccc1)N(C)C(=O)CNC(=O)[C@@H](C)NC(=O)[C@@H](N)Cc1ccc(O)cc1)C(=O)N[C@@H](Cc1c[nH]c2ccccc12)C(=O)NCc1cc(C(F)(F)F)cc(C(F)(F)F)c1 [AKG123]", "MOR", 8.05),
]

What value of measured pKi is listed for CC(C)C[C@H](NC(=O)[C@@H]1CCCN1C(=O)CNC(=O)[C@H](CCC(N)=O)NC(=O)[C@H](Cc1ccccc1)N(C)C(=O)CNC(=O)[C@@H](C)NC(=O)[C@@H](N)Cc1ccc(O)cc1)C(=O)N[C@@H](Cc1c[nH]c2ccccc12)C(=O)NCc1cc(C(F)(F)F)cc(C(F)(F)F)c1 [AKG-SK-145] (H-Y[dA]G[NMeF]QGPLW-{NH(3,5-(CF3)2-benzyl)}) ?
8.70

What value of measured pKi is listed for Cc1cc(O)cc(C)c1C[C@H](N)C(=O)N[C@H](C)C(=O)NCC(=O)N(C)[C@@H](Cc1ccc(F)cc1)C(=O)N[C@@H](CO)C(=O)N1CCC[C@H]1C(=O)N[C@@H](CC(C)C)C(=O)N[C@@H](Cc1c[nH]c2ccccc12)C(=O)NCc1cc(C(F)(F)F)cc(C(F)(F)F)c1 [AKG135] (H-[Dmt][dA]G[NMePhe(4-F)]SPLW-{NH(3,5-(CF3)2-benzyl)}; N-terminus assumed) ?
9.30

###

Below: a set of entries, each annotated with reported Kb.
# MEASURED_TARGET: NK1R (Cavia porcellus)
# Construct: The longitudinal muscle with myenteric plexus (LMMP) was carefully separated from the circular muscle; from tissue; host or cells: guinea pig ileum longitudinal muscle with myenteric plexus
# Sequence (P30547 whole entry): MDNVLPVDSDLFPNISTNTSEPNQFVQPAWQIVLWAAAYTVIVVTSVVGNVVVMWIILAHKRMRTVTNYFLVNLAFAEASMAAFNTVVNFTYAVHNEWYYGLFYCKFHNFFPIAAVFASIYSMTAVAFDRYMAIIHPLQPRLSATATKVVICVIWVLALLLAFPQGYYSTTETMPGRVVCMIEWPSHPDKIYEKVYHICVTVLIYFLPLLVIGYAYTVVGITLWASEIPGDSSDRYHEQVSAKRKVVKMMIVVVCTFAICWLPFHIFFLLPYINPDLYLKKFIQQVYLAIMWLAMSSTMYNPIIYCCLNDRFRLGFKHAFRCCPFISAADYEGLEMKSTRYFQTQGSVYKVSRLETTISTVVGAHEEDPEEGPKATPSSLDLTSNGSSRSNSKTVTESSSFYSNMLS
# ASSAY_OVERVIEW: GPI/LMMP functional assay at NK1R (agonist and antagonist testing)
# Assay type: cell-based, guinea pig
# EXPERIMENTAL_CONDITIONS: GPI/LMMP (NK1R) Ke (nM) ± S.E.M., antagonist activity
Non-standard residues stand in square brackets, D forms with d. Residues, ends and D or L forms follow the SMILES beside them. *: point of attachment. NH(3,5-(CF3)2-benzyl) = FC(F)(F)c1cc(CN*)cc(C(F)(F)F)c1; NMePhe(4-F) = CN[C@@H](Cc1ccc(F)cc1)C(=O)O; Dmt = Cc1cc(O)cc(C)c1C[C@H](N)C(=O)O; NMeF = CN[C@@H](Cc1ccccc1)C(=O)O
Give just the number in nM; leave the unit off.

# COMPOUND, VAL
records = [
    ("Cc1cc(O)cc(C)c1C[C@H](N)C(=O)N[C@H](C)C(=O)NCC(=O)N(C)[C@@H](Cc1ccccc1)C(=O)N[C@@H](CO)C(=O)NCC(=O)N1CCC[C@H]1C(=O)N[C@@H](CC(C)C)C(=O)N[C@@H](Cc1c[nH]c2ccccc12)C(=O)NCc1cc(C(F)(F)F)cc(C(F)(F)F)c1 [AKG-CRA-137] (H-[Dmt][dA]G[NMeF]SGPLW-{NH(3,5-(CF3)2-benzyl)})", 26.3),
    ("CC(C)C[C@H](NC(=O)[C@@H]1CCCN1C(=O)[C@H](CO)NC(=O)[C@H](Cc1ccc(F)cc1)N(C)C(=O)CNC(=O)[C@@H](C)NC(=O)[C@@H](N)Cc1ccc(O)cc1)C(=O)N[C@@H](Cc1c[nH]c2ccccc12)C(=O)NCc1cc(C(F)(F)F)cc(C(F)(F)F)c1 [AKG134] (H-Y[dA]G[NMePhe(4-F)]SPLW-{NH(3,5-(CF3)2-benzyl)})", 1.86),
    ("CCCC[C@H](NC(=O)[C@H](Cc1ccccc1)N(C)C(=O)CNC(=O)[C@@H](C)NC(=O)[C@@H](N)Cc1ccc(O)cc1)C(=O)N1CCC[C@H]1C(=O)N[C@@H](CC(C)C)C(=O)N[C@@H](Cc1c[nH]c2ccccc12)C(=O)NCc1cc(C(F)(F)F)cc(C(F)(F)F)c1", 5.4),
]

What value of measured Kb is listed for `CC(C)C[C@H](NC(=O)[C@@H]1CCCN1C(=O)[C@@H](CO)NC(=O)[C@H](Cc1ccccc1)NC(=O)CNC(=O)[C@@H](C)NC(=O)[C@@H](N)Cc1ccc(O)cc1)C(=O)N[C@@H](Cc1c[nH]c2ccccc12)C(=O)NCc1cc(C(F)(F)F)cc(C(F)(F)F)c1` ?
28

What value of measured Kb is listed for CC(C)C[C@H](NC(=O)[C@@H]1CCCN1C(=O)CNC(=O)[C@H](Cc1ccccc1)N(C)C(=O)CNC(=O)[C@@H](C)NC(=O)[C@@H](N)Cc1ccc(O)cc1)C(=O)N[C@@H](Cc1c[nH]c2ccccc12)C(=O)NCc1cc(C(F)(F)F)cc(C(F)(F)F)c1 [AKG113] (H-Y[dA]G[NMeF]GPLW-{NH(3,5-(CF3)2-benzyl)}) ?
14.9

What value of measured Kb is listed for `Cc1cc(O)cc(C)c1C[C@H](N)C(=O)N[C@H](C)C(=O)NCC(=O)N(C)[C@@H](Cc1ccc(F)cc1)C(=O)N1CCC[C@H]1C(=O)N[C@@H](CC(C)C)C(=O)N[C@@H](Cc1c[nH]c2ccccc12)C(=O)NCc1cc(C(F)(F)F)cc(C(F)(F)F)c1` ?
11.2

What value of measured Kb is listed for `Cc1cc(O)cc(C)c1C[C@H](N)C(=O)N[C@H](C)C(=O)NCC(=O)N[C@@H](Cc1ccc(Br)cc1)C(=O)N1CCC[C@H]1C(=O)N[C@@H](CC(C)C)C(=O)N[C@@H](Cc1c[nH]c2ccccc12)C(=O)NCc1cc(C(F)(F)F)cc(C(F)(F)F)c1` ?
23.4

What value of measured Kb is listed for CC(C)C[C@H](NC(=O)[C@@H]1CCCN1C(=O)CNC(=O)[C@H](CO)NC(=O)[C@H](Cc1ccccc1)N(C)C(=O)CNC(=O)[C@@H](C)NC(=O)[C@@H](N)Cc1ccc(O)cc1)C(=O)N[C@@H](Cc1c[nH]c2ccccc12)C(=O)NCc1cc(C(F)(F)F)cc(C(F)(F)F)c1 [AKG-CRA-136] (H-Y[dA]G[NMeF]SGPLW-{NH(3,5-(CF3)2-benzyl)}) ?
27.6

What value of measured Kb is listed for Cc1cc(O)cc(C)c1C[C@H](N)C(=O)N[C@H](C)C(=O)NCC(=O)N(C)[C@@H](Cc1ccc(F)cc1)C(=O)N[C@@H](CO)C(=O)N1CCC[C@H]1C(=O)N[C@@H](CC(C)C)C(=O)N[C@@H](Cc1c[nH]c2ccccc12)C(=O)NCc1cc(C(F)(F)F)cc(C(F)(F)F)c1 [AKG135] (H-[Dmt][dA]G[NMePhe(4-F)]SPLW-{NH(3,5-(CF3)2-benzyl)}; N-terminus assumed) ?
28.7

###

# MEASURED_TARGET: hNK1 (Homo sapiens, UniProt P25103)
# Construct: expressed in transfected cells; host or cells: CHO
# Sequence (P25103 whole entry): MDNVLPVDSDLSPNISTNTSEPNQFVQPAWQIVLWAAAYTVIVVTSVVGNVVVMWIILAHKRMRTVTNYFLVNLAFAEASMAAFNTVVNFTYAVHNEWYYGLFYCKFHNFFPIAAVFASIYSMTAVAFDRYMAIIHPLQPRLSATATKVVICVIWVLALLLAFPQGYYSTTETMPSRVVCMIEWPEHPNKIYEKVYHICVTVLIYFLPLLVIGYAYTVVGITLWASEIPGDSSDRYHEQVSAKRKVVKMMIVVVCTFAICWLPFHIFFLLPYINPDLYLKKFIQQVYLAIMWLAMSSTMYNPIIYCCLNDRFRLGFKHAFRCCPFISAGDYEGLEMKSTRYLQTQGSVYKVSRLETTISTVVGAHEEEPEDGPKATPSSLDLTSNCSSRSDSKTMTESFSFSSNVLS
# ASSAY_OVERVIEW: hNK1/CHO cell membrane radioligand binding assay ([3H]SP)
# EXPERIMENTAL_CONDITIONS: Ki^hNK1 (nM), hNK1/CHO membranes, [3H]SP
Non-standard residues stand in square brackets, D forms with d. Residues, ends and D or L forms follow the SMILES beside them. *: point of attachment. NH(3,5-(CF3)2-benzyl) = FC(F)(F)c1cc(CN*)cc(C(F)(F)F)c1; NMePhe(4-F) = CN[C@@H](Cc1ccc(F)cc1)C(=O)O; Dmt = Cc1cc(O)cc(C)c1C[C@H](N)C(=O)O; NMeF = CN[C@@H](Cc1ccccc1)C(=O)O
Below: a set of entries, each annotated with reported Ki.
Give just the number in nM; leave the unit off.

Solved entries:
# MOLECULE, Ki (nM)
rows = [
    ("CC(C)C[C@H](NC(=O)[C@@H]1CCCN1C(=O)[C@H](Cc1ccc(F)cc1)NC(=O)CNC(=O)[C@@H](C)NC(=O)[C@@H](N)Cc1ccc(O)cc1)C(=O)N[C@@H](Cc1c[nH]c2ccccc12)C(=O)NCc1cc(C(F)(F)F)cc(C(F)(F)F)c1", 5.61),
    ("CC(C)C[C@H](NC(=O)[C@@H]1CCCN1C(=O)[C@H](Cc1ccccc1)N(C)C(=O)[C@H](Cc1c[nH]c2ccccc12)NC(=O)[C@@H]1CCCN1C(=O)[C@@H](N)Cc1ccc(O)cc1)C(=O)N[C@@H](Cc1c[nH]c2ccccc12)C(=O)NCc1cc(C(F)(F)F)cc(C(F)(F)F)c1 [AKG223] (H-YPW[NMeF]PLW-{NH(3,5-(CF3)2-benzyl)})", 3.59),
]

Checklist item: Ki tested on hNK1 (Homo sapiens, UniProt P25103), entry `CC(C)C[C@H](NC(=O)[C@@H]1CCCN1C(=O)[C@@H](CO)NC(=O)[C@H](Cc1ccccc1)NC(=O)CNC(=O)[C@@H](C)NC(=O)[C@@H](N)Cc1ccc(O)cc1)C(=O)N[C@@H](Cc1c[nH]c2ccccc12)C(=O)NCc1cc(C(F)(F)F)cc(C(F)(F)F)c1` , value?
3

Checklist item: Ki tested on hNK1 (Homo sapiens, UniProt P25103), entry Cc1cc(O)cc(C)c1C[C@H](N)C(=O)N[C@H](C)C(=O)NCC(=O)N(C)[C@@H](Cc1ccc(F)cc1)C(=O)N[C@@H](CO)C(=O)N1CCC[C@H]1C(=O)N[C@@H](CC(C)C)C(=O)N[C@@H](Cc1c[nH]c2ccccc12)C(=O)NCc1cc(C(F)(F)F)cc(C(F)(F)F)c1 [AKG135] (H-[Dmt][dA]G[NMePhe(4-F)]SPLW-{NH(3,5-(CF3)2-benzyl)}; N-terminus assumed) , value?
7.26

Checklist item: Ki tested on hNK1 (Homo sapiens, UniProt P25103), entry `Cc1cc(O)cc(C)c1C[C@H](N)C(=O)N[C@H](C)C(=O)NCC(=O)N[C@@H](Cc1ccccc1)C(=O)N1CCC[C@H]1C(=O)N[C@@H](CC(C)C)C(=O)N[C@@H](Cc1c[nH]c2ccccc12)C(=O)NCc1cc(C(F)(F)F)cc(C(F)(F)F)c1` , value?
1.4
